The next entries give measured IC50 for Pantothenate synthetase (Mycobacterium tuberculosis, UniProt P9WIL5).
Write down the numeric answer in µM and omit the unit.

>  <Compound>
CC(C)(C)C1CCc2onc(C(=O)Nc3cn[nH]c3)c2C1 (stereo not given)

>  <IC50 (µM)>
61

$$$$
>  <Compound>
CC(C)(C)C1CCc2onc(C(=O)Nc3cnn(Cc4ccc(C(=O)NCCc5ccccc5)cc4)c3)c2C1 (stereo not given)

>  <IC50 (µM)>
0.14

$$$$
>  <Compound>
COC(=O)c1ccc(Cn2cc(NC(=O)c3noc4c3CC(C(C)(C)C)CC4)cn2)cc1 (stereo not given)

>  <IC50 (µM)>
0.16

$$$$
>  <Compound>
CC(C)(C)C1CCc2onc(C(=O)Nc3cnn(Cc4ccc5ccccc5c4)c3)c2C1 (stereo not given)

>  <IC50 (µM)>
0.09

$$$$

Please look at the following compound next.
Returns the measured IC50 for the input compound. Input: Cc1ccccc1Cn1cc(NC(=O)c2noc3c2CC(C(C)(C)C)CC3)cn1 (stereo not given)
0.12
